Assay: Passive permeability across apical to basolateral side in dog MDCK-MDR1 cells
Format: ADME, cell-based, Canis lupus familiaris
measure: Papp A→B (×10⁻⁶ cm/s)
Write the answer as a number in ×10⁻⁶ cm/s, unit excluded.

Solved cases (3 shown):
chemical.structure | Papp A→B / ×10⁻⁶ cm/s
CCn1c(CO)nn(-c2cc3c(C(C)C)cn(-c4ccc(F)cc4C)c(=O)c3cc2F)c1=O | 48.2
CCn1c(CO)nn(-c2cc3c(C(C)C)cn(-c4c(C)cnc(OC)c4Cl)c(=O)c3cc2F)c1=O | 42.6
CCn1c(CO)nn(-c2cc3c(C(C)C)cn(-c4ccccc4C)c(=O)c3cc2F)c1=O | 33.1

Alright, here's another compound for you.
// Papp A→B lookup, key: "CCn1c(CO)nn(-c2cc3c(C(C)C)cn(-c4ccccc4C(F)F)c(=O)c3cc2F)c1=O" 39
